TESTED_SYSTEM: APOL1 (Homo sapiens, UniProt O14791)
PROCEDURE_SUMMARY: MultiTox-Fluor Multiplex Cytotoxicity Assay in tet-inducible APOL1 T-REx-HEK293 cells (cell rescue, ratio of dead to live cells)
CONDITION_NOTES: tet-inducible transgenic APOL1 T-REx-HEK293 cell lines, 50 ng/mL tet, 24 hours; read-out: IP50 (i.e., IC50 for cell proliferation)
Protocol: The MultiTox-Fluor Multiplex Cytotoxicity Assay is a single-reagent-addition, homogeneous, fluorescence assay that measures the number of live and dead cells simultaneously in culture wells. […] The MultiTox reagent was added to each well and placed back in the incubator for an additional 30 minutes. The plate was read on the EnVision plate reader. A ratio of dead to live cells was used to normalize, and data was imported, analyzed, and fit using Genedata Screener (Basel, Switzerland) software. […]
pIC50: −log10 of the molar value.
REPORTED_METRIC: pIC50

Here are 5 molecules together with their reported answers.
>  <MOLECULE>
CCc1cc2c(s1)CCOC21CCN(Cc2ccc(C(=O)NCCOCCO)nc2)CC1

>  <pIC50>
6.30 to 7.00

$$$$
>  <MOLECULE>
CCc1cc2c(s1)CCOC21CCN(Cc2cn(CC(=O)NCCO)nn2)CC1

>  <pIC50>
6.00 to 6.30

$$$$
>  <MOLECULE>
CCc1cc2c(s1)CCOC21CCN(Cc2cncs2)CC1

>  <pIC50>
6.00 to 6.30

$$$$
>  <MOLECULE>
C[C@H]1C[C@@]2(CCN1C1CC(O)C1)OCCc1cc(CC(F)F)sc12 (stereo partly shown)

>  <pIC50>
6.00 to 6.30

$$$$
>  <MOLECULE>
C[C@H]1C[C@@]2(CCN1Cc1cnn(CCS(C)(=O)=O)c1)OCCc1cc(C(F)(F)C(F)F)sc12

>  <pIC50>
> 7.00

$$$$

Incoming: Fill in: pIC50 of CCc1cc2c(s1)CCO[C@@]21CCN(CC2CN(C(=O)CCS(N)(=O)=O)C2)[C@@H](C)C1 is ___
Outgoing: 6.30 to 7.00

Incoming: Look at this molecule and give its reported pIC50. CCc1cc2c(s1)CCO[C@@]21CCN(CC2CN(C(=O)c3n[nH]c(=O)[nH]3)C2)[C@@H](C)C1
Outgoing: 6.30 to 7.00

Incoming: Which pIC50 reading was recorded for the molecule COCCOCC(O)Cn1cc(CN2CC[C@]3(C[C@@H]2C)OCCc2c3sc(C(F)(F)F)c2CO)cn1 (stereo partly shown) ?
Outgoing: > 7.00

Incoming: Fill blank: measured pIC50 of the molecule COCCC(O)Cn1cc(CN2CC[C@]3(C[C@@H]2C)OCCc2c3sc(C(F)(F)F)c2CO)cn1 (stereo partly shown) is ____.
Outgoing: > 7.00

---

TESTED_SYSTEM: APOL1 (Homo sapiens)
PROCEDURE_SUMMARY: MultiTox-Fluor Multiplex Cytotoxicity Assay in tet-inducible APOL1 T-REx-HEK293 cells (cell rescue, ratio of dead to live cells)
CONDITION_NOTES: tet-inducible transgenic APOL1 T-REx-HEK293 cell lines, 50 ng/mL tet, 24 hours; read-out: IP50 (i.e., IC50 for cell proliferation)
The following molecules are shown together with reported IC50 values.

Recorded results for 6 molecules are shown here.
>  <MOLECULE>
CCc1cc2c(s1)CCOC21CCN(Cc2ccc(NS(=O)(=O)C3CC3)nc2)CC1

>  <IC50>
100 to 500 nM

$$$$
>  <MOLECULE>
[2H]c1c(CC)sc2c1[C@]1(CCN(Cc3cn(CCS(C)(=O)=O)nn3)[C@@H](C)C1)OCC2

>  <IC50>
< 100 nM

$$$$
>  <MOLECULE>
CCc1cc2c(s1)CCO[C@@]21CCN(C[C@H]2C[C@@H](NC(=O)OCc3ccccc3)C2)[C@@H](C)C1

>  <IC50>
100 to 500 nM

$$$$
>  <MOLECULE>
CCc1cc2c(s1)CCO[C@@]21CCN(CC2CN(C(=O)c3cc(C(F)(F)F)n[nH]3)C2)[C@@H](C)C1

>  <IC50>
< 100 nM

$$$$
>  <MOLECULE>
C[C@H]1C[C@@]2(CCN1Cc1ccccn1)OCCc1c2sc(Cl)c1CO

>  <IC50>
500 to 1000 nM

$$$$
>  <MOLECULE>
CCc1cc2c(s1)CCOC21CCN(Cc2ccc(NS(=O)(=O)C3CC3)cc2)CC1

>  <IC50>
100 to 500 nM

$$$$

Incoming: Given CCc1cc2c(s1)CCOC21CCN(Cc2cn(Cc3ccc(=O)[nH]c3)nn2)CC1 , state its recorded IC50.
Outgoing: 500 to 1000 nM

Incoming: Sample C[C@H]1C[C@@]2(CCN1Cc1ccc(S(C)(=O)=O)cc1)OCCc1cc(Cl)sc12 — what was its IC50?
Outgoing: 100 to 500 nM

Incoming: Report IC50 for CCc1cc2c(s1)CCOC21CCN(Cc2cn(Cc3cc(C(N)=O)co3)nn2)CC1 please.
Outgoing: 500 to 1000 nM

Incoming: So what does the record say about IC50 for C[C@H]1C[C@@]2(CCN1Cc1cnn(Cc3nnnn3C)c1)OCCc1c2sc(C(F)(F)F)c1CO ?
Outgoing: < 100 nM

Incoming: Entry C[C@H]1C[C@@]2(CCN1Cc1cnn(CC3CCOCC3)c1)OCCc1c2sc(C(F)(F)F)c1CO : reported IC50 = ?
Outgoing: < 100 nM

Incoming: Which IC50 is listed for CCc1cc2c(s1)CCO[C@@]21CCN(Cc2cn(C3CC(CO)N3)nn2)[C@@H](C)C1 (stereo partly shown) ?
Outgoing: 100 to 500 nM

Incoming: For the molecule CCc1cc2c(s1)CCO[C@@]21CCN(C[C@H]2C[C@@H](NC(=O)C(O)C(F)(F)F)C2)[C@@H](C)C1 (stereo partly shown) , what IC50 is on record?
Outgoing: < 100 nM

Incoming: Would you kindly share the measured IC50 for CCc1cc2c(s1)CCO[C@@]21CCN(Cc2cn(CC(C)(C)C(C)O)nn2)[C@@H](C)C1 (stereo partly shown) ?
Outgoing: 100 to 500 nM

Incoming: Any idea what its IC50 is? The molecule is CCc1cc2c(s1)CCO[C@]21CCN(Cc2cnn(CCS(C)(=O)=O)c2)[C@H](C)C1
Outgoing: 100 to 500 nM

Incoming: May I ask what IC50 has been recorded for CCc1cc2c(s1)CCOC21CCN(CC2CCN(C(=O)OC(C)(C)C)CC2)CC1 ?
Outgoing: 500 to 1000 nM

---

TESTED_SYSTEM: APOL1 (Homo sapiens)
Sequence (O14791 1-398 S342G/I384M): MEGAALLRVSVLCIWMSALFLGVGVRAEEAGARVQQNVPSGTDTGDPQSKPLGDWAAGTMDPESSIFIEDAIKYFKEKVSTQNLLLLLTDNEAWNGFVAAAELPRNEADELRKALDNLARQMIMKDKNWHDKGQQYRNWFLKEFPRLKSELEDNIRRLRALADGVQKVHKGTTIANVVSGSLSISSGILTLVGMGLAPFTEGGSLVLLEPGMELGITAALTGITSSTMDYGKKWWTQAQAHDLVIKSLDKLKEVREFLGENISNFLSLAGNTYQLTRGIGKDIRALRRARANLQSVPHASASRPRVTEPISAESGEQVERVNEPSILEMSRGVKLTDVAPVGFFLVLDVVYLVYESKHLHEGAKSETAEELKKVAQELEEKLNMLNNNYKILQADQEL
PROCEDURE_SUMMARY: MultiTox-Fluor Multiplex Cytotoxicity Assay in tet-inducible APOL1 T-REx-HEK293 cells (cell rescue, ratio of dead to live cells)
CONDITION_NOTES: tet-inducible transgenic APOL1 T-REx-HEK293 cell lines, 50 ng/mL tet, 24 hours; read-out: IP50 (i.e., IC50 for cell proliferation)
pIC50: −log10 of the molar value.
Measured pIC50 values are reported for all entries that follow.

Worked cases, answers included:
>  <MOLECULE>
Cn1cc(CN2CCC3(CC2)OCCc2sc(C(F)(F)F)cc23)cn1

>  <ASSAY_RESULT>
6.30 to 7.00

$$$$
>  <MOLECULE>
CCc1cc2c(s1)CCOC21CCN(Cc2cn(CC(O)CF)nn2)C(C)C1 (stereo not shown)

>  <ASSAY_RESULT>
> 7.00

$$$$
>  <MOLECULE>
CCc1cc2c(s1)CCOC21CCN(Cc2cn(CCC(=O)NCCO)nn2)CC1

>  <ASSAY_RESULT>
6.00 to 6.30

$$$$

Let's switch to this molecule now.
Incoming: Need pIC50 of C[C@H]1C[C@@]2(CCN1Cc1ccccc1F)OCCc1cc(Cl)sc12 , thanks.
Outgoing: 6.30 to 7.00
